Data origin: patent US20230117034A1

molecular target: CDK12 (nuclear staining in CAL-120 cells) (Homo sapiens, UniProt Q9NYV4); construct: endogenous in cells; host or cells: CAL-120 human breast cancer cells (DSMZ ACC 459); test: CDK12 nuclear protein level: immunofluorescence/high content analysis (CAL-120); assay type: cell-based; conditions: CAL-120 cells, 24 h, immunofluorescence; 50% reduction of nuclear CDK12 staining intensity; median; read-out: CDK12 degradation IF, DC50- [mol/l] (median)
Sequence (Q9NYV4 whole entry): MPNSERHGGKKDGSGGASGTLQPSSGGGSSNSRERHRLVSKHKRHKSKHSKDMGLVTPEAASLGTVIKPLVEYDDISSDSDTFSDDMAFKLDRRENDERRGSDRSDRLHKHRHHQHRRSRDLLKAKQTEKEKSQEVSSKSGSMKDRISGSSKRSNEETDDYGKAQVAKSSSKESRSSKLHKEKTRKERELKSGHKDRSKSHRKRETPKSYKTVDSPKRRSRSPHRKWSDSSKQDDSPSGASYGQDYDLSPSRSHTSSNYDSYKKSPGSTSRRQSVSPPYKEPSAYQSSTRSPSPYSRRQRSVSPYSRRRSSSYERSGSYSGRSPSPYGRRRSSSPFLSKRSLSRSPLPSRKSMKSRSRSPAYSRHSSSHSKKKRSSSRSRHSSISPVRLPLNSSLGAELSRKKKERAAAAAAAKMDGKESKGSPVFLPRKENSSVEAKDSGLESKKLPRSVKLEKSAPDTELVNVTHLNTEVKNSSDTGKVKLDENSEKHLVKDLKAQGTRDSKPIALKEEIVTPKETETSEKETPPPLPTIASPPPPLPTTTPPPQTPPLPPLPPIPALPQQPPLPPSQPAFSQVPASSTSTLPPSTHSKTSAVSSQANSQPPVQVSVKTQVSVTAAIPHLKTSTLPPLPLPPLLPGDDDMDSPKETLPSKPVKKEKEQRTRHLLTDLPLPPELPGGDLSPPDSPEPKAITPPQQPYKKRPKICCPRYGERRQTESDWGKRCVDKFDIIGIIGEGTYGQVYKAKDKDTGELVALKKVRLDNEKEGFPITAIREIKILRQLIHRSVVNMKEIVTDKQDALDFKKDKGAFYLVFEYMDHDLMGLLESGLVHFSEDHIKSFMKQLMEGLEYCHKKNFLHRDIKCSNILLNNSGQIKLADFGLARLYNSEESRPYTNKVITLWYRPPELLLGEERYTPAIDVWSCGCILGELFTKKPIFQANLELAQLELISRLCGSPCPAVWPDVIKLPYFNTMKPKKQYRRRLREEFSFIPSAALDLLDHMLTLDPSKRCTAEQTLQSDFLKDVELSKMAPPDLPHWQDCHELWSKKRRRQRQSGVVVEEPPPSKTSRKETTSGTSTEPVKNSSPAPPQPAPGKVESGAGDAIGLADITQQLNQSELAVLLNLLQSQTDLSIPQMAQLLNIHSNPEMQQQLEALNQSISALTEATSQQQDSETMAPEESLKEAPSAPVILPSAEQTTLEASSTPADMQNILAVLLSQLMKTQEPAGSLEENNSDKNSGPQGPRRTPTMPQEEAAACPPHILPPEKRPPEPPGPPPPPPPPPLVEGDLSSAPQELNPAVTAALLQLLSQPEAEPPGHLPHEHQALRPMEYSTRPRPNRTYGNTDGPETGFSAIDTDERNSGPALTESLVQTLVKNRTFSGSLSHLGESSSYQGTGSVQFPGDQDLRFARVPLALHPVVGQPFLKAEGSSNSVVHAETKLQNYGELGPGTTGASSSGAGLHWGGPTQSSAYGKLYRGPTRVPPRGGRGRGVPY
Sequence (O75909 whole entry partner): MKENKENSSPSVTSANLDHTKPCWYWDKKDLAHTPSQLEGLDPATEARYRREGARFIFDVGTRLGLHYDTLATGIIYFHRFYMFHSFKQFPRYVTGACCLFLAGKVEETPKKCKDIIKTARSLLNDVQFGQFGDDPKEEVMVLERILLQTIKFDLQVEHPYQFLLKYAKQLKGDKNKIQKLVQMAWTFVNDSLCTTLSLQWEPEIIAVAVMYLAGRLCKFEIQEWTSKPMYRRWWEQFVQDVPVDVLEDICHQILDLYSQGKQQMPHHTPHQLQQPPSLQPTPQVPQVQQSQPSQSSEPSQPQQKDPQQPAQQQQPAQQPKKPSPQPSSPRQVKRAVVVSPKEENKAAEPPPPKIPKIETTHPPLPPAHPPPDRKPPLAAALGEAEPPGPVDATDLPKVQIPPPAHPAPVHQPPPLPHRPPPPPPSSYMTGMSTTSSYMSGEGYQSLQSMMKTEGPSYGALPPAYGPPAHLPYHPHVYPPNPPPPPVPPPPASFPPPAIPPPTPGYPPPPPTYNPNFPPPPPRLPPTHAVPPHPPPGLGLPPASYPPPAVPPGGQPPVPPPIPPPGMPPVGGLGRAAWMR
RECORDED_ENDPOINT: DC50 (nM)

Below are worked cases with known answers.
| STRUCTURE_SMILES_STRING | READOUT_VALUE |
| --- | --- |
| CN(c1nc(NCc2nc3ccccc3[nH]2)n2ncc(Br)c2n1)[C@H]1C[C@H](O)C1 | 23.6 |
| Clc1cc2nc(CNc3nc(N4CCOCC4)nc4c(-c5cncs5)cnn34)[nH]c2cc1Cl | 4.23 |

1: O=S1(=O)CCN(c2nc(NCc3nc4ccccc4[nH]3)n3ncc(Br)c3n2)CC1
2: CCc1cnn2c(NCc3nc4ccccc4[nH]3)nc(N3CCN(C)CC3)nc12
[Q] Please indicate which entry, 1 or 2 , has the lower recorded DC50 value. Write the label of whichever entry you select.
[A] 1
(1: 3.39 nM, 2: 5 nM)
